# Assay summary: Total clearance in rat at 1 mg/kg, iv
# Assay type: ADME, organism-based
# Design: dose 1 mg/kg, route intravenous
# Test conditions: in vivo
Value kind: clearance (L/h/kg)
Give just the numeric value; L/h/kg need not be written.

Consider the molecule CCC(CC)c1cc(C)n2nc(-c3cnc(OC(F)F)cc3C)n(C)c(=O)c12 and give its measured clearance. 2.08

----------
# Assay summary: Cmax in rat at 1 mg/kg, po
# Test conditions: in vivo
Value kind: Cmax (ng/mL)
Give just the numeric value; ng/mL need not be written.

Consider the molecule CCC(CC)c1cc(C)n2nc(-c3cnc(OC(F)F)cc3C)n(C)c(=O)c12 and give its measured Cmax. 21.5

Origin of values: ChEMBL document CHEMBL1938359
